Assay: antimalarial activity against Dd2 strain (AID 2302);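 also: 0% = DMSO untreated growth and 100% = chloroquine plus artemisinin killed control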
Settings: P. falciparum Dd2 in RBCs, LDH growth readout, 72 h; at 2 µM
Calls of active or inactive are those of the source.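 The calls were made as follows: active = growth inhibition above 50% at the single 2 µM test dose, taken to imply half-maximal potency below 2 µM; inactive = the rest.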
Select the matching outcome among active, inactive

Worked set:
{"compound": "O=C(Cn1c(CCc2cccc(F)c2F)cc(=O)c2ccccc21)N(Cc1ccc(-c2ccc(C(F)(F)F)cc2)cc1)C1CCN(CCN2CCOCC2)CC1", "class_name": "inactive"}
{"compound": "C/C=C/C=C/C1=NCCc2cc(OCCC)ccc21", "class_name": "inactive"}

Assay result, entry Cc1cc(NN=Cc2cccc(Cl)c2)c2ccccc2n1 — outcome? active

Assay result, entry Cc1ccccc1OCC(O)CNC1CCC(NCC(O)COc2ccccc2C)CC1 (stereo not given) — outcome? inactive

Assay result, entry Fc1ccc(C(OCC2CCCN(Cc3cccc4cccnc34)C2)c2ccc(F)cc2)cc1 (stereo not given) — outcome? active

----------
Quick list: inhibition per entry.
Target: L-lactate dehydrogenase (Plasmodium falciparum (isolate CDC / Honduras)) (UniProt Q27743)
Sequence (Q27743 whole entry, looked up): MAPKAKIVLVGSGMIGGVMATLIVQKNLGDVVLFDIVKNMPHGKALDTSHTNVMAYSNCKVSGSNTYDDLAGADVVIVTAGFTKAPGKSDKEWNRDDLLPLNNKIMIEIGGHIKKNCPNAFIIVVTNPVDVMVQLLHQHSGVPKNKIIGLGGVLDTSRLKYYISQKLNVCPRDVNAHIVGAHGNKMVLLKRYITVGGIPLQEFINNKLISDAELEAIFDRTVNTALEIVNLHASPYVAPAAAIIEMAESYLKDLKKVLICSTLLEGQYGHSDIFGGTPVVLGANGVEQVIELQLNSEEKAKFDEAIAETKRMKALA
Assay: PfLDH activity inhibition – cell lysate, 3D7 strain, counter-screen for P. falciparum growth inhibition project (AID 2304);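 also: 0% = vehicle and 100% = reference inhibitor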
Conditions: P. falciparum 3D7 crude extract, LDH APAD/NBT absorbance; at 2 µM; stronger effect = higher value
Please reply with the bare figure in % and do not write the unit itself.

Recorded results for 2 compounds are shown here.
{"molecule_smiles": "COc1ccccc1N1CCN(CCCCNC(=O)c2ccc(NC(=O)c3ccc4ccccc4c3)cc2)CC1", "endpoint_unit": "%", "inhibition": 1}
{"molecule_smiles": "O=C(/C=C/c1ccc(Cl)c(Cl)c1)N1CCC(NCc2c[nH]c3ccccc23)CC1", "endpoint_unit": "%", "inhibition": -2}

Could you now consider this next compound?
# compound COc1ccc2ncc(C#N)c(CCN3CCC(NCc4ccc5c(n4)NC(=O)CS5)CC3)c2n1 ; its inhibition = -1

----------
Assay: antimalarial activity against Dd2 strain (AID 2302);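 also: 0% = DMSO untreated growth and 100% = chloroquine plus artemisinin killed control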
Conditions: P. falciparum Dd2 in RBCs, LDH growth readout, 72 h; at 2 µM; stronger effect = higher value
Decision: growth inhibition >= 60% yields Y, all other cases yield N.

Worked set:
{"molecule": "Cc1ccc(C)c(-n2c(SCC(=O)Nc3ccc(C(N)=O)cc3)nnc2-c2cccc(Cl)c2)c1", "class_name": "Y"}
{"molecule": "CN1CCN(CC(=O)Nc2cccc(-c3ccc(-c4nc5ccc(F)cc5[nH]4)s3)c2)CC1", "class_name": "Y"}
{"molecule": "N#Cc1ccc(/C=C/C(=O)NCCCCCN2CCCN(C(=O)Nc3ccc(Cl)c(C(F)(F)F)c3)CC2)cc1", "class_name": "N"}
{"molecule": "FC(F)(F)c1ccc2nc(-c3cccc(-c4ccc(CNCC5CCCO5)cc4)c3)[nH]c2c1 (centres undefined)", "class_name": "Y"}

Say whether O=C(Nc1ccc(OC2CCN(Cc3ccc(F)cc3)C2)c(Cl)c1)c1ccoc1 (centres undefined) shows growth inhibition of 60% or more. Y

Say whether CCCC(C)N(Cc1ccc(C(C)(C)C)cc1)C(=O)c1ccc(OC)cc1 (centres undefined) shows growth inhibition of 60% or more. Y

Say whether O=C(NCCCCN1CCC(c2ccc3c(c2OCCN2CCCC2=O)CCCC3)CC1)c1ccc(-c2ccc(C(F)(F)F)cc2)cc1 shows growth inhibition of 60% or more. N

Say whether CCCCc1cc(NCC)nc(Nc2ccc(F)cc2)n1 shows growth inhibition of 60% or more. N

Say whether Cc1cccc2[nH]c(-c3cccc(-c4cccc(NC(=O)c5ccc(=O)[nH]n5)c4)c3)nc12 shows growth inhibition of 60% or more. N

Say whether COC(=O)c1ccccc1N1CCN(CCCCNC(=O)c2ccc(NC(=O)c3cc(Cl)cc(Cl)c3)cc2)CC1 shows growth inhibition of 60% or more. N

Say whether CS(=O)(=O)NCCCNCc1ccc(-c2ccc(-c3nc4ccc(F)cc4[nH]3)s2)cc1 shows growth inhibition of 60% or more. N

----------
Assay: antimalarial activity against Dd2 strain (AID 2302);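 also: 0% = DMSO untreated growth and 100% = chloroquine plus artemisinin killed control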
Conditions: P. falciparum Dd2 in RBCs, LDH growth readout, 72 h; at 2 µM; stronger effect = higher value
Decision: growth inhibition >= 90% yields 1 (yes), all other cases yield 0 (no).

Worked set:
{"compound": "CC(C)(C)c1ccc(OCCCON2C(N)=NC(N)=NC2(C)C)c(C(C)(C)C)c1", "class_name": "1 (yes)"}
{"compound": "COc1ccc(C2CC(c3ccccc3O)=NN2C(=O)c2ccco2)cc1OC (stereo not given)", "class_name": "0 (no)"}
{"compound": "Oc1ccc(CCNCCCCNCCc2ccc(Cl)cc2)cc1O", "class_name": "0 (no)"}
{"compound": "COc1ccc(NC(=O)/C=C/c2ccccc2Cl)cc1OCCN1CCN(c2ccncc2)CC1", "class_name": "0 (no)"}
{"compound": "COc1ccc(C(=O)Nc2ccc(-c3nc4ccc(C)cc4[nH]3)cc2)cc1OC", "class_name": "0 (no)"}

Next, consider the following compound.
Say whether NC(N)=Nc1ccc(NC(=O)Nc2ccc(N=C(N)N)cc2)cc1 shows growth inhibition of 90% or more. 0 (no)

----------
Experiment: antimalarial activity against Dd2 strain (AID 2302);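 also: 0% = DMSO untreated growth and 100% = chloroquine plus artemisinin killed control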
Conditions: P. falciparum Dd2 in RBCs, LDH growth readout, 72 h; at 2 µM; stronger effect = higher value
Decision: growth inhibition >= 90% yields Condition met, all other cases yield Condition not met.

Worked set:
{"compound": "CCn1c(Cc2ccccc2)nnc1SCC(=O)N1c2ccccc2Sc2ccccc21", "class_name": "Condition met"}
{"compound": "COc1ccccc1CNc1nc(Nc2ccccc2C)nc2ccccc12", "class_name": "Condition not met"}
{"compound": "COc1cc(C(=O)N2CCN(C(C)C)CC2)ccc1CN(C)CCCN1CCN(c2cccc(Cl)c2Cl)CC1", "class_name": "Condition not met"}
{"compound": "Cc1cc(C)c(O)c(-c2cc(C(=O)Nc3ccc(S(=O)(=O)N4CC(C)OC(C)C4)cc3)[nH]n2)c1 (configuration not stated)", "class_name": "Condition not met"}
{"compound": "NC(N)=Nc1ccc(OCCCCCOc2ccc(N=C(N)N)cc2)cc1", "class_name": "Condition met"}

Next, consider the following compound.
Say whether CCCC(C)Nc1nc(C)cc(N[C@@H](Cc2ccccc2)C(=O)NCCc2ccccc2)n1 (some centres not stated) shows growth inhibition of 90% or more. Condition not met

----------
Assay: inhibition of 3D7 malaria parasite growth – strain 3D7 (AID 2306);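 also: 0% = DMSO wells and 100% = chloroquine plus artemisinin control wells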
Details: P. falciparum 3D7 erythrocytic growth, LDH absorbance, 72 h; at 2 µM; stronger effect = higher value
outcome_measure: growth inhibition (%)
Please reply with the bare figure in % and do not write the unit itself.

{"molecule": "Oc1c(C(Nc2nc3ccccc3s2)c2ccccc2)ccc2cccnc12 (stereo unspecified)", "endpoint_unit": "%", "growth inhibition": 95}

# molecule Cc1ccccc1C1CCN(C2CCC(NC(=O)c3cc(-c4ccccc4)oc3C)CC2)CC1 (stereo unspecified) ; its growth inhibition = 100

# molecule Cc1nc(Nc2cc(Cl)ccc2O)nc(Nc2cc(Cl)ccc2O)c1[N+](=O)[O-] ; its growth inhibition = 98

# molecule CN(C)Cc1ccc(-c2ccc(NC(=O)c3ccc4c(=O)n(Cc5ccoc5)cnc4c3)cc2)cc1 ; its growth inhibition = 80

# molecule Cc1ccc(O)c(C(=O)c2cc(C(=O)Nc3ccccc3C)c(=O)n(-c3ccccc3C)c2)c1 ; its growth inhibition = 98

# molecule CCOC(=O)c1ccc(Nc2cc(Nc3ccc(C(=O)OCC)cc3)nc(C)n2)cc1 ; its growth inhibition = 99

# molecule CCCCCCCCCc1c(C)[nH]c2ccccc2c1=O ; its growth inhibition = 97

# molecule COc1ccc(Cl)cc1N1CCN(CCCNC(=O)c2ccc(-c3nc4cc(Cl)c(C)cc4[nH]3)s2)CC1 ; its growth inhibition = 102

# molecule Cn1cncc1C(=O)Nc1cccc(-c2csc(-c3nc4ccccc4[nH]3)c2)c1 ; its growth inhibition = 102

# molecule CC(CN(C)C)C(=O)Nc1ccc(-c2csc(-c3nc4ccccc4[nH]3)c2)cc1 (stereo unspecified) ; its growth inhibition = 84

# molecule Clc1ccc(Nc2nc(Nc3ccc(Cl)c(Cl)c3)nc(Sc3nc4ccccc4[nH]3)n2)cc1Cl ; its growth inhibition = 99

----------
Quick list: growth inhibition per entry.
Assay: antimalarial activity against Dd2 strain (AID 2302);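 also: 0% = DMSO untreated growth and 100% = chloroquine plus artemisinin killed control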
Details: P. falciparum Dd2 in RBCs, LDH growth readout, 72 h; at 2 µM; stronger effect = higher value
Please reply with the bare figure in % and do not write the unit itself.

# molecule COc1ccc2oc(=O)c(C#N)c(O)c2c1 ; its growth inhibition = -4

# molecule NC(=O)c1cnc2ccc(-c3cncs3)cc2c1Nc1ccc(F)c(Cl)c1 ; its growth inhibition = 99

# molecule O=c1cc(NCCCNCc2cccc(I)c2)[nH]c2ccccc12 ; its growth inhibition = 9

# molecule COc1cccc(C2CCN(CCN3CCC(NC(=O)c4ccc(-c5ccc(C#N)cc5)cc4)CC3)CC2)c1 ; its growth inhibition = 47

# molecule C#CCOc1ccc(N2C(N)=NC(N)=NC2(C)C)cc1 ; its growth inhibition = -3
